- assay_target: p38 MAP Kinase a (Homo sapiens (Human), UniProt Q16539)
- Sequence (Q16539 whole entry): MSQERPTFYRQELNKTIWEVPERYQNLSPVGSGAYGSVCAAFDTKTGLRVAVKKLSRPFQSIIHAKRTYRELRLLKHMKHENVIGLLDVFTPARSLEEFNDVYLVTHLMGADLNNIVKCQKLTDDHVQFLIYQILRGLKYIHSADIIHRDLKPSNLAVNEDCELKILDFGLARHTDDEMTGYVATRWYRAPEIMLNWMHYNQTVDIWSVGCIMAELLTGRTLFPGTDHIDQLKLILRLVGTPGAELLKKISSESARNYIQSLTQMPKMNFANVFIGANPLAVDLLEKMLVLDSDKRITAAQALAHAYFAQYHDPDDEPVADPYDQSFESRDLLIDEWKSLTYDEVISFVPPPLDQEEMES
- assay_method_text: p38 MAP kinase enzyme assay (radiometric filter-binding)
- Format: biochemical
- test_parameters: ester tested; read-out: A—ester enzyme assay (p38 kinase A (invitrogen)), IC50
recorded_metric: IC50 (nM)
Your answer is read as nM, so omit the unit and give the number.

Worked examples follow.
[[record]]
structure_notation = "CC(C)(C)OC[C@H](NCCc1cc(F)c(-n2c(N)c(C(=O)c3ccc(F)cc3F)ccc2=O)c(F)c1)C(=O)OC1CCCC1"
recorded_metric = "IC50"
units_text = "nM"
readout_value = 57

[[record]]
structure_notation = "C[C@H](NCCc1ccc(-n2c(N)c(C(=O)c3ccc(F)cc3F)ccc2=O)cc1)C(=O)OC(C)(C)C"
recorded_metric = "IC50"
units_text = "nM"
readout_value = 58

[[record]]
structure_notation = "CC(C)C[C@H](NCCCCCOc1cc(F)c(-n2c(N)c(C(=O)c3ccc(F)cc3F)ccc2=O)c(F)c1)C(=O)OC1CCCC1"
recorded_metric = "IC50"
units_text = "nM"
readout_value = 81


Now let's try a different one.
In plain terms, `CCOC(=O)[C@H](CC(C)C)NCCCOc1cc(F)c(-n2c(N)c(C(=O)c3ccc(F)cc3)ccc2=O)c(F)c1` has a documented IC50 of 28
